The measured values listed here are drawn from ChEMBL document CHEMBL1938334.

Procedure Details: Cytotoxicity against MDBK cells after 48 to 96 hrs by MTT assay
Assay type: cell-based, Bos taurus
Experimental Parameters: cattle
Measurement Name: CC50

Would you please look over these solved cases?
Clc1ccc(-c2nc3cc4cccnc4cc3[nH]2)cc1Cl
> 100 µM
Oc1ccnc2c(Cl)c3[nH]c(-c4ccccc4)nc3cc12
> 100 µM
O=[N+]([O-])c1c2cccnc2c(Cl)c2[nH]nnc12
> 100 µM

Record summary for O=[N+]([O-])c1c2cccnc2c(Cl)c2[nH]n[n+]([O-])c12 : reported CC50 = > 100 µM

Record summary for CC(=O)n1nnc2c(Cl)c3ncccc3cc21 : reported CC50 = 30 µM

Record summary for O=c1[nH]c2cc3c(O)ccnc3c(Cl)c2nc1-c1ccccc1 : reported CC50 = > 100 µM

Record summary for c1cnc2cc3[nH]nnc3cc2c1 : reported CC50 = > 100 µM

Record summary for Clc1c2ncccc2cc2nc[nH]c12 : reported CC50 = > 100 µM

Record summary for Nc1ccc(-c2nc3cc4cccnc4c(Cl)c3[nH]2)cc1 : reported CC50 = 45 µM

Record summary for O=C(CCl)Cn1nnc2cc3cccnc3c(Cl)c21 : reported CC50 = 21 µM

Record summary for [O-][n+]1n[nH]c2c(Cl)c3nccc(O)c3cc21 : reported CC50 = > 100 µM

Record summary for Oc1ccnc2c(Cl)c3[nH]nnc3cc12 : reported CC50 = > 100 µM
